Biological target: T1, 4H264-bA
T1 chain: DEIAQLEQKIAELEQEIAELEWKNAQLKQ
Assay: two-hybrid library CCNG1;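 further: natural log of median RNA to DNA barcode read ratio; higher means stronger binding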
metric: interaction score

Sample answers from the record:
DKIAQLEQENAELEQKNAELKWEIAQLEQ [4H2233-bA] = -1.45
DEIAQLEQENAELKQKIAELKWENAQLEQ [4H235-bA] = -0.636
DEIAQLEQENAELEQKIAELEWKIAQLKQ [4H166-bA] = 1.18
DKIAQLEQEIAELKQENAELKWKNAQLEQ [4H2143-bA] = -1.37

1: DKIAQLEQKNAELEQEIAELKWENAQLKQ [4H2444-bA]
2: DKIAQLEQKNAELKQENAELEWKIAQLKQ [4H2518-bA]
3: DEIAQLEQKIAELEQEIAELEWKNAQLKQ [4H264-bA]
[Q] // ascending sort on recorded interaction score List labels; respect the requested ordering.
[A] 2, 1, 3
(2: -1, 1: 0.179, 3: 1.38)
